targetUnderTest: Endoribonuclease Dicer (Homo sapiens)
protocolNotes: Dicer cleavage of pre-miR-21 blockers – biochemical, cat-ELCCA, chemiluminescence, primary screen (AID 1347074);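 note: plate controls were vehicle for no effect and no enzyme for full effect; higher signal means more uncleaved substrate so more Dicer inhibition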
appliedConditions: cat-ELCCA pre-miR-21 Dicer processing, at 25 µM, active compounds read high
Out of some 47,000 compounds screened, about 2,800 (6%) were called active. The entries come from a sample that favours actives as a whole.
Recorded z-score by entry
A bare number is all that is needed in reply.

CCCc1ccc(C(=O)NNc2ccc(C)cc2C)cc1 : 4.39
COc1ccc(-c2n[nH]c(=S)n2-c2ccc(Cl)cc2C)cc1 : -1.05
O=C1CC(N2CCN(C(c3ccccc3)c3ccccc3)CC2)C(=O)N1c1cccc(Cl)c1 (stereo unspecified) : -0.21

Can you share its z-score? I mean this compound: "CCCCCCCCc1ccc(C(=O)O)cc1" -0.9

Can you share its z-score? I mean this compound: "COCCCNC(=S)Nc1ccc(C)cc1C" -0.42

Can you share its z-score? I mean this compound: "CCOC(=O)c1cc(Sc2ccccc2)cc(C(=O)OCC)n1" -0.71
